Test system: L-363
Assay: cells
Conditions: Homo sapiens, L-363, 96 h
Description: Cytotoxicity against human L-363 cells assessed as reduction in cell viability after 4 days by CellTiter-Blue assay
ENDPOINT: IC50 (nM)
Numbers only, in nM.

Q: Entry CC(C)(C)c1cc(NC(=O)Nc2ccc3oc(C(=O)c4cc5cc(OC(=O)N6CCC(N7CCCCC7)CC6)ccc5[nH]4)cc3c2)no1.Cl : reported IC50 = ?
Result: 1.61

====

Target: Receptor-type tyrosine-protein kinase FLT3 (Homo sapiens, UniProt P36888, D835Y)
ENDPOINT: IC50
State the value, then name its unit.

Q: Entry CC(C)(C)c1cc(NC(=O)Nc2ccc3oc(C(=O)c4cc5cc(O)ccc5[nH]4)cc3c2)no1 : reported IC50 = ?
Result: 4.84 nM
